# Test system: dengue virus type 2
# METHOD: Functional immunofluorescence assay to measure dose dependent changes in antiviral-drug inhibitory efficacy against Dengue virus type 2 Thailand/16681/84 in Vero E6/TMPRSS2 cells (cotreated with P-gp inhibitor, Elacridar). Cells are treated with antiviral candidates that are serially diluted, following infection, cells are fixed. EC50 is reported via analysis of immunofluorescence staining. The assay has been performed by Icahn School of Medicine at Mount Sinai.
# Format: organism-based, Chlorocebus sabaeus, VeroE6/TMPRSS2
# MEASUREMENT_SETUP: Dengue virus, VeroE6/TMPRSS2
pEC50: −log10 of the molar value.
RESULT_TYPE: pEC50

Solved entries:
smi=O=C(Nc1ccc2c(c1)CNC2)c1cc(Cl)cc2[nH]ncc12 result="< 4.30"
smi=O=C(NC[C@H]1CCCO1)[C@H](Nc1ccc2c(c1)CNC2)c1cc(Cl)cc2[nH]ncc12 result="< 4.78"
smi=CC[C@H](Cc1nnn[nH]1)c1ccc(NC(=O)[C@H]2[C@H]3CCCCC[C@H]3[C@H]2NC(=O)OCc2ccccc2)cc1 result=4.79
smi=NCc1ccc(F)c(NC(=O)c2cc(Cl)cc(NC(=O)OCc3ccccc3)c2)c1 result="< 5.26"
smi=NCc1cccc(NC(=O)[C@@H](NC(=O)OCc2ccccc2)c2ccc(Br)c(Cl)c2)c1 result="< 5.26"

Inquiry: I would be grateful if you could share the reported pEC50 for `O=C(Nc1ccc2c(c1)CNC2)c1cc(Br)cc2[nH]c(C3CCOCC3)nc12` .
Reply text: < 5.26

Inquiry: Also `N[C@H]1Cc2ccc(NC(=O)c3cc(Cl)cc4[nH]ncc34)cc2C1` ?
Reply text: < 4.30

Inquiry: Also `O=C(Nc1ccc2c(n1)CNC2)c1cc(Cl)cc2[nH]ncc12` ?
Reply text: 4.48

Inquiry: Also `Cc1c(C(=O)Nc2cc([C@H]3CCOC3)ccn2)cc(C2CC2)n1C` ?
Reply text: < 4.30

* * *

# Test system: Zika virus
# METHOD: Functional CPE-based assay to measure dose dependent changes in antiviral-drug inhibitory efficacy against Zika virus MR766 in Vero E6 miRFP670 cells. Cells are treated with antiviral candidates that are serially diluted. EC50 is reported via analysis of MTS assay as a readout of CPE. The assay has been performed by KU Leuven.
# Type: organism-based, Chlorocebus sabaeus, Vero C1008
# MEASUREMENT_SETUP: Zika virus, Vero C1008
pEC50: −log10 of the molar value.
Quick reference: pEC50 of the listed items.

compound=CC(C)(C)c1cc(Br)cc(C(=O)Nc2ccc3c(c2)CNC3)c1 result="< 4.30"
compound=Clc1ccc2[nH]cc(Cc3ccc(-c4nn[nH]n4)cc3)c2c1 result="< 4.30"
compound=CNC(=O)[C@H](Nc1cc(CN)cc(C(=O)O)c1)c1cc(Cl)cc(C2CC2)c1 result="< 4.30"
compound="NCc1cccc(NC(=O)[C@H](NC(=O)OCc2ccccc2)C2CCC(c3ccccc3)CC2)c1 (stereo not given in full)" result="< 4.30"
compound=CN1Cc2ccc(NC(=O)c3cc(Cl)cc4[nH]ncc34)cc2C1 result="< 4.30"
compound=NCCc1cccc(NC(=O)[C@H]2[C@H]3CCCCC[C@H]3[C@H]2NC(=O)OCc2ccccc2)c1 result="< 4.30"
compound=C=CC[C@H](Nc1cc(Cl)cc(NC(=O)OCc2ccccc2)c1)c1ccc(-c2nn[nH]n2)cc1 result=5.65
compound=CC(C)CNC(=O)c1cc(Cl)c(F)cc1NS(=O)(=O)c1ccc(Oc2ccccc2Cl)cc1 result="< 4.30"
compound=O=C(O)c1cc(Cl)c(F)cc1S(=O)(=O)Nc1ccc(Oc2ccccc2Cl)cc1 result=4.40
compound=CCOCCNC(=O)c1cc(Cl)ccc1NS(=O)(=O)c1ccc(Oc2ccccc2Cl)cc1 result="< 4.30"

Inquiry: I would be grateful if you could share the reported pEC50 for `CC(C)Cc1nc2c(C(=O)Nc3ccc4c(c3)CNC4)cc(Br)cc2[nH]1` .
Reply text: < 4.30

Inquiry: Also `COc1cc(-c2cc(Cl)cc(NC(=O)OCc3ccccc3)c2)c(OC)cc1CC(=O)O` ?
Reply text: < 4.30

Inquiry: Also `CC(C)c1nc2c(C(=O)Nc3ccc4c(c3)CNC4)cc(Br)cc2[nH]1` ?
Reply text: > 6.41

Inquiry: Also `O=C(NCC(F)(F)F)c1cc(Cl)c(F)cc1NS(=O)(=O)c1ccc(Oc2ccccc2Cl)cc1` ?
Reply text: < 4.30

* * *

# Tested on: dengue virus type 2
# METHOD: Functional assay to measure dose dependent changes in antiviral-drug inhibitory efficacy against Dengue virus type 2 New Guinea C in Vero E6 miRFP670 cells (cotreated with P-gp inhibitor, CP100356). Cells are treated with antiviral candidates that are serially diluted, following infection, cells are fixed. EC50 is reported via analysis of fluorescence intensity using high-content imager. The …
# Assay type: organism-based, Chlorocebus sabaeus, Vero C1008
# MEASUREMENT_SETUP: vero c1008
RESULT_TYPE: EC50

smi=N#Cc1ccc(-c2nc3c(C(=O)Nc4ccc5c(c4)CNC5)cc(F)cc3[nH]2)cc1 result_type=EC50 result="> 50 µM"
smi=CC(C)CNC(=O)c1cc(Cl)c(F)cc1NS(=O)(=O)c1ccc(Oc2ccccc2Cl)cc1 result_type=EC50 result="5.64 µM"

Next:
Inquiry: Param readout = EC50; param system = dengue virus type 2; param query = `O=C(NCC(F)F)[C@H](Nc1ccc2c(c1)CNC2)c1cc(Cl)cc(C2CC2)c1` ; response: value
Reply text: > 25 µM

* * *

Quick reference: pEC50 of the listed items.
# System: Zika virus
# METHOD: Functional CPE-based assay to measure dose dependent changes in antiviral-drug inhibitory efficacy against Zika virus MR766 in Vero E6 miRFP670 cells. Cells are treated with antiviral candidates that are serially diluted. EC50 is reported via analysis of MTS assay as a readout of CPE. The assay has been performed by KU Leuven.
# Format: organism-based, Chlorocebus sabaeus, Vero C1008
# MEASUREMENT_SETUP: Zika virus, Vero C1008
pEC50: −log10 of the molar value.

Solved entries:
smi=O=C(NCC1CC1)c1cc(Cl)ccc1NS(=O)(=O)c1ccc(Oc2ccccc2Cl)cc1 result_type=pEC50 result="< 4.30"
smi=COc1cccc(-c2ccc([C@@H](NC(=O)OCc3ccccc3)C(=O)Nc3cccc(CN)c3)cc2)c1 result_type=pEC50 result="< 4.30"

Inquiry: I would be grateful if you could share the reported pEC50 for `OCC#C[C@H](Nc1ccc2c(c1)CNC2)c1cc(Cl)cc2[nH]ncc12` .
Reply text: < 4.30

Inquiry: Also `Cc1ccc(NC(=O)c2cc(Cl)cc(NC(=O)OCc3ccccc3)c2)cc1CN` ?
Reply text: < 5.51

* * *

Quick reference: log10(EC90) of the listed items.
# Tested on: Zika virus
# METHOD: EC50 is reported via analysis of immunofluorescence staining. The assay has been performed by Icahn School of Medicine at Mount Sinai.
# Format: functional, organism-based, Chlorocebus sabaeus, VeroE6/TMPRSS2
# MEASUREMENT_SETUP: Zika virus, VeroE6/TMPRSS2
Each number you see is log10 of EC90, and the unit inside the log is µM.

smi=CC[C@@H](Cc1nnn[nH]1)c1ccc(NC(=O)c2cc(Cl)cc(NC(=O)OCc3ccccc3)c2)cc1 result_type=log10(EC90) numeric_value=0.46
smi=Cc1c(C(=O)Nc2cc(-c3cccnc3)ccn2)cc(C2CC2)n1C result_type=log10(EC90) numeric_value=1.51
smi=NCCCc1ccnc(NC(=O)c2cc(Cl)cc(NC(=O)OCc3ccccc3)c2)c1 result_type=log10(EC90) numeric_value=0.51
smi=c1cc(C2CCN(Cc3c[nH]c4ccccc34)CC2)c2ccncc2c1 result_type=log10(EC90) numeric_value=1.40
smi=NCCc1cccc(NC(=O)[C@H]2[C@H]3CCCCC[C@H]3[C@H]2NC(=O)OCc2ccccc2)c1 result_type=log10(EC90) numeric_value=1.45

Inquiry: I would be grateful if you could share the reported log10(EC90) for `NCc1cccc(NC(=O)[C@H]2[C@H]3CCCCC[C@H]3[C@H]2NC(=O)OCc2ccccc2)c1` .
Reply text: 0.99

Inquiry: Also `Cc1c(C(=O)Nc2cc([C@H]3CCOC3)ccn2)cc(C2CC2)n1C` ?
Reply text: 1.69

Inquiry: Also `NCc1ccc(-c2ncc(OCC3CCNCC3)nc2-c2ccc(-c3ccoc3)cc2)cc1` ?
Reply text: 1.22

Inquiry: Also `CC(C)CNC(=O)c1cc(Cl)ccc1NS(=O)(=O)c1ccc(Oc2ccccc2Cl)cc1` ?
Reply text: 1.51

* * *

Quick reference: EC50 of the listed items.
# Tested on: Zika virus
# METHOD: Functional CPE-based assay to measure dose dependent changes in antiviral-drug inhibitory efficacy against Zika virus MR766 in Vero E6 miRFP670 cells. Cells are treated with antiviral candidates that are serially diluted. EC50 is reported via analysis of MTS assay as a readout of CPE. The assay has been performed by KU Leuven.
# Format: organism-based, Chlorocebus sabaeus, Vero C1008
# MEASUREMENT_SETUP: Zika virus, Vero C1008

smi=O=C(Nc1ccc2c(c1)CNCC2)c1cc(Cl)cc2[nH]ncc12 result="> 50 µM"
smi=O=C(Nc1cc(Cl)cc(C(=O)Nc2cccc([C@H]3C[C@H]3C(=O)O)c2)c1)OCc1ccccc1 result="> 50 µM"
smi=CCCNC(=O)[C@H](Nc1cccc(-c2nn[nH]n2)c1)c1cc(Cl)cc(NC(=O)OCc2ccccc2)c1 result="> 50 µM"

Inquiry: Param readout = EC50; param system = Zika virus; param query = `O=C(Nc1cc(Cl)cc(C(=O)Nc2ccc3c(c2)CNCC3)c1)OCc1ccccc1` ; response: value
Reply text: < 0.391 µM

Inquiry: Also `CC(C)(C)NC(=O)[C@H](Nc1cccc(-c2nn[nH]n2)c1)c1cc(Cl)cc(NC(=O)OCc2ccccc2)c1` ?
Reply text: 49.8 µM
